Biological target: Glutaminase kidney isoform, mitochondrial (Homo sapiens, UniProt O94925)
Test: Negative allosteric modulator activity at human wildtype KGA incubated for 5 hrs in presence of GDH and NADP by EZMTT assay
reported.metric: pIC50
// pIC50: -log10(molar conc.)

# example entries with known answers
Nc1nnc(CC[Se][Se]CCc2nnc(N)s2)s1: 5.40
O=C1c2ccccc2C(=O)N1CC[Se][Se]CCN1C(=O)c2ccccc2C1=O: 6.40

# evaluate next
-- ask Requested read-out: pIC50. Entry: Cc1cc(C)n(CC[Se][Se]CCn2nc(C)cc2C)n1
-- reply 5.44

###

In this section we review reported IC50 values for a set of molecules.
Molecular target: Glutaminase kidney isoform, mitochondrial (Homo sapiens)
Sequence (O94925 whole entry): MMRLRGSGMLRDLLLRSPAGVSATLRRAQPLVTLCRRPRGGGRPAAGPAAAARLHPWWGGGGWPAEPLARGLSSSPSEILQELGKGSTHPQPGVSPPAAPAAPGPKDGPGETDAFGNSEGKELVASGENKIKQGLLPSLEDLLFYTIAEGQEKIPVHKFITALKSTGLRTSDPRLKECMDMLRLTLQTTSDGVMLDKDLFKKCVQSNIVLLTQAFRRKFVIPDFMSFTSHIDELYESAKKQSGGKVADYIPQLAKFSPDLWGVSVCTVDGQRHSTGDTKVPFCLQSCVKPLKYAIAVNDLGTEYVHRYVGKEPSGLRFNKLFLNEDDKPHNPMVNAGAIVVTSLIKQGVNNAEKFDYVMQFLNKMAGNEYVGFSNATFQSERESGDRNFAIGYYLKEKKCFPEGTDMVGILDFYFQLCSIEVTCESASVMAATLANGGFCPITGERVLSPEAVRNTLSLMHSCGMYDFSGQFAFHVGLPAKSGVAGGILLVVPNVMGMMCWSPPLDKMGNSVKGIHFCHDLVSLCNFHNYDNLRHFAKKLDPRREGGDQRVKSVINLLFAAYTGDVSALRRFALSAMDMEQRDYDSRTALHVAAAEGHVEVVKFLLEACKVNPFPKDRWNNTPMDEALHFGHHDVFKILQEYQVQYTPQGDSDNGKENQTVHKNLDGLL
Assay: Negative allosteric modulator activity at human wildtype KGA incubated for 5 hrs in presence of GDH and NADP by EZMTT assay

# example entries with known answers
O=C1c2ccccc2C(=O)N1CCSSCCN1C(=O)c2ccccc2C1=O: > 10 µM
Nc1nnc(CCCCCCc2nnc(N)s2)s1: > 10 µM

# evaluate next
-- ask Requested read-out: IC50. Entry: Cc1cc(C)n(CCSSCCn2nc(C)cc2C)n1
-- reply > 10 µM

###

Target: Thioredoxin reductase (Escherichia coli (strain K12), UniProt P0A9P4)
Sequence (P0A9P4 whole entry): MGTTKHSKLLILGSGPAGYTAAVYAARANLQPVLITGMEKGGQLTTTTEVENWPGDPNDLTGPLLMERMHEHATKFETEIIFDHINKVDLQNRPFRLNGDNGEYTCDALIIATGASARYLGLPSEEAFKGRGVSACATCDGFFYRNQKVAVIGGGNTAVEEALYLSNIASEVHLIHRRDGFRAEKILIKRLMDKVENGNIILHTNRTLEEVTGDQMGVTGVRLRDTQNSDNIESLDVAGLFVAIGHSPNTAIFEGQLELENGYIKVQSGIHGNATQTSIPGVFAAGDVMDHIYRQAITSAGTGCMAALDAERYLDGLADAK
Experiment: Negative allosteric modulator activity at Escherichia coli TrxR using DTNB as substrate preincubated for 20 mins followed by substrate addition in presence of NADPH and measured after 60 mins
reported.metric: IC50

# example entries with known answers
Cc1cc(C)n(CCSSCCn2nc(C)cc2C)n1: > 10 µM
O=C(Cc1cccc(OC(F)(F)F)c1)Nc1ccc(CCCCc2nnc(NC(=O)Cc3ccccn3)s2)nn1: > 10 µM
Cc1nn(CCSSCCn2nc(C)c(Cl)c2C)c(C)c1Cl: > 10 µM

-- ask Requested read-out: IC50. Entry: Nc1nnc(CCCCCCc2nnc(N)s2)s1
-- reply > 10 µM

-- ask Requested read-out: IC50. Entry: CCCCCCCC[Se][Se]CCCCCCCC
-- reply > 10 µM

-- ask Requested read-out: IC50. Entry: Cc1nn(CCC[Se]CCn2nc(C)c(Cl)c2C)c(C)c1Cl
-- reply > 10 µM

-- ask Requested read-out: IC50. Entry: Nc1nnc(CCCCCCc2nnc(N)[se]2)[se]1
-- reply > 10 µM

-- ask Requested read-out: IC50. Entry: O=C1c2ccccc2C(=O)N1CCSSCCN1C(=O)c2ccccc2C1=O
-- reply > 10 µM

-- ask Requested read-out: IC50. Entry: Cc1cc(C)n(CC[Se][Se]CCn2nc(C)cc2C)n1
-- reply 3.7 µM

-- ask Requested read-out: IC50. Entry: Nc1nnc(CC[Se][Se]CCc2nnc(N)s2)s1
-- reply 3 µM

-- ask Requested read-out: IC50. Entry: Cc1nn(CCCCCCn2nc(C)c(Cl)c2C)c(C)c1Cl
-- reply > 10 µM

-- ask Requested read-out: IC50. Entry: O=c1[nH]n(CC[Se][Se]CCn2[nH]c(=O)c3ccccc3c2=O)c(=O)c2ccccc12
-- reply 2.1 µM
